biological target: Polθ protein (amino acids 2-2590) (Homo sapiens, UniProt O75417); test: Polθ full length enzyme potency assay (PicoGreen); details: Polθ IC50 (nM), full length N-His, C-term FLAG tagged Polθ, PicoGreen fluorescence, 12 point concentration response
Sequence (O75417 2-2590): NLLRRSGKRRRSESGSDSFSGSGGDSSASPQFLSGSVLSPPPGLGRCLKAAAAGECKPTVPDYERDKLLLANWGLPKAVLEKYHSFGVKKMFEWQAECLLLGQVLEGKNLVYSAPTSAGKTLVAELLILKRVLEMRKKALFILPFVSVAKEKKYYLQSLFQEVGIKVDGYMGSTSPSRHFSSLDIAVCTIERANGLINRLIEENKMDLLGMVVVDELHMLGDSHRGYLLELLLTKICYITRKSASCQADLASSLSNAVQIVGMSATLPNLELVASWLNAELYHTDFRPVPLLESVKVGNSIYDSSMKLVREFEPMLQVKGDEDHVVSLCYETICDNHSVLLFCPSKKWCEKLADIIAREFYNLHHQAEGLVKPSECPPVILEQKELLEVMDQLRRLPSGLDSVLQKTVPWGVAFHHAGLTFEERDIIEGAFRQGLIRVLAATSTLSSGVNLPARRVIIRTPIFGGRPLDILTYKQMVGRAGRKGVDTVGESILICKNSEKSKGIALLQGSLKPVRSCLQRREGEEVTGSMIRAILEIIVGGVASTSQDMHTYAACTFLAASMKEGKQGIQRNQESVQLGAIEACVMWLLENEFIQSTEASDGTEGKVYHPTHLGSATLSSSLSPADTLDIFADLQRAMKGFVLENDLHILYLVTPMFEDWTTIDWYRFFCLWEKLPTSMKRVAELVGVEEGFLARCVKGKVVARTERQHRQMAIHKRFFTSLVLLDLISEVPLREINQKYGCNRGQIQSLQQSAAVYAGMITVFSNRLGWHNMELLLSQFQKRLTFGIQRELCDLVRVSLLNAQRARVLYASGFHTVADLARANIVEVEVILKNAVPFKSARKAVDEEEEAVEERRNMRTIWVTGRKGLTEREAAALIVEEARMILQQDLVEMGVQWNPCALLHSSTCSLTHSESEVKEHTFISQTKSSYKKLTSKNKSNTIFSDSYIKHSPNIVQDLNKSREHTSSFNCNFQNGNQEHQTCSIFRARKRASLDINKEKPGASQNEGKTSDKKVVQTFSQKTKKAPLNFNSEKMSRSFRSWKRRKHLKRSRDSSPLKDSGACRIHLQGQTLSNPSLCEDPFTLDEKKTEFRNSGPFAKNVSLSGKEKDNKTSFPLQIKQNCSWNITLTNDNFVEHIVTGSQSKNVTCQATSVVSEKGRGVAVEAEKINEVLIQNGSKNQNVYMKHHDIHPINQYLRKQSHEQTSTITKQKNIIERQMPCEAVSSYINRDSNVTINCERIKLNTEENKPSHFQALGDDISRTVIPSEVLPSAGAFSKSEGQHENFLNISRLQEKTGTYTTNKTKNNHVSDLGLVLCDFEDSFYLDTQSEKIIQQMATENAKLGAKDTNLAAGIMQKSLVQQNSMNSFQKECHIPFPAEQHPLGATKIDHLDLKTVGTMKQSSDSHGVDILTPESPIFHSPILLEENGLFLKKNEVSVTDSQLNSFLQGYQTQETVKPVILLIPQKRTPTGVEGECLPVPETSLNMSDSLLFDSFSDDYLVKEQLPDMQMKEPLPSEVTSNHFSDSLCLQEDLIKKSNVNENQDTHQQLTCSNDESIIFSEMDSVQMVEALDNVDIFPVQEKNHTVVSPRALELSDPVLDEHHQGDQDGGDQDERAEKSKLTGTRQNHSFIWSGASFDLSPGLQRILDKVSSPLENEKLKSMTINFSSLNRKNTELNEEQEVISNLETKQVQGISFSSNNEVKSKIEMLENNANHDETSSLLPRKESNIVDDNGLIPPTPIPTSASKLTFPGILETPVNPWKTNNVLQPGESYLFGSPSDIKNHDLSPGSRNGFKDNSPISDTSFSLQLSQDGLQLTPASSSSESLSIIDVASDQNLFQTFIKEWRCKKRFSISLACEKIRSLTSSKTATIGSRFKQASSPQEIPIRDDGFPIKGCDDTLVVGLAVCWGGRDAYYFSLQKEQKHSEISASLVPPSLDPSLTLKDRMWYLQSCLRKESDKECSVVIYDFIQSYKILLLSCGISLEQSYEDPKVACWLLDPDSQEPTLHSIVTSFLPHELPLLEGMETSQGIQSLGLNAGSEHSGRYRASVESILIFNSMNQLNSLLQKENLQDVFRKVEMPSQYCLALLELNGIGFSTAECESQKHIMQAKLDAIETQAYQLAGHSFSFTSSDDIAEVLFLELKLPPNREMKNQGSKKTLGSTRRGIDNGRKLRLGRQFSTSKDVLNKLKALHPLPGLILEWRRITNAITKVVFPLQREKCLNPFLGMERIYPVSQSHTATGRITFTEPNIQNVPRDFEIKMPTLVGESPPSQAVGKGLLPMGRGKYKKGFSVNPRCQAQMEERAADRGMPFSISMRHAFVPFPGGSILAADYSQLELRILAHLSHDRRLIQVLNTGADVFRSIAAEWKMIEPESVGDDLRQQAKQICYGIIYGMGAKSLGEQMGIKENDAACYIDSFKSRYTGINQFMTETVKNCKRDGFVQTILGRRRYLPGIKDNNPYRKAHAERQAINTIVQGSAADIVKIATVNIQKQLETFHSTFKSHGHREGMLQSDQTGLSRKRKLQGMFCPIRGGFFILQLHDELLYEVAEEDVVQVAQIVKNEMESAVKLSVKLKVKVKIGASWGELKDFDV
Flag rule - IC50 less than 90 nM flags true (1); the remaining entries get false (0).

{"Compound": "CCN(C(=O)[C@H]1C[C@@H](N(C)C2CCNC2)CN1c1nc(C)cc(C)c1C#N)c1cccc(C)c1 (stereo in doubt)", "Assigned category": "false (0)"}
{"Compound": "CCN(C(=O)[C@@H]1C[C@H](N2CCO[C@@H](CO)C2)CN1c1nc(C)cc(C(F)(F)F)c1C#N)c1ccc(F)c(Cl)c1", "Assigned category": "true (1)"}
{"Compound": "CCN(C(=O)[C@H]1C[C@@H](NCCS(C)(=O)=O)CN1c1nc(C)cc(C)c1C#N)c1cccc(C)c1 (stereo in doubt)", "Assigned category": "true (1)"}
{"Compound": "Cc1cc(C(F)(F)F)cc(N2C(=O)OC[C@H]2C(=O)N(C)c2ccc3c(c2)COC3)n1", "Assigned category": "true (1)"}
{"Compound": "Cc1cc(C)c(C#N)c(N2C[C@@H](O)C[C@H]2C(=O)N(C)c2cccc(CF)c2)n1", "Assigned category": "false (0)"}
{"Compound": "CO[C@H]1C[C@@H](C(=O)N(C)c2cccc(C)c2)N(c2nc(C)cc(C(F)(F)F)c2C#N)C1", "Assigned category": "true (1)"}
{"Compound": "Cc1cc(C(F)(F)F)cc(N2C(=O)N(CCN3CCOCC3)C[C@H]2C(=O)N(C)c2ccc(F)c(Cl)c2F)n1", "Assigned category": "true (1)"}
{"Compound": "CCN(C(=O)[C@@H]1[C@H](O)[C@H](O)CN1c1nc(C)cc(C(F)(F)F)c1C#N)c1ccc(F)c(Cl)c1", "Assigned category": "true (1)"}
{"Compound": "Cc1cccc(N(C)C(=O)[C@@H]2C[C@H](O)CN2c2nc(C)cc(C(C)C)c2C#N)c1", "Assigned category": "true (1)"}
{"Compound": "CCN(C(=O)[C@H]1C[C@@H](N(C)C)CN1c1nc(C)cc(C)c1C#N)c1cccc(C)c1 (stereo in doubt)", "Assigned category": "true (1)"}
{"Compound": "Cc1cccc(N(C(=O)[C@@H]2CCCN2c2nc(C)cc(C(F)(F)F)c2C#N)C(C)C)c1", "Assigned category": "true (1)"}
{"Compound": "Cc1cccc(N(C)C(=O)[C@@H]2C[C@H](O)CN2c2nc(C)cc(C)c2C#N)c1", "Assigned category": "true (1)"}
{"Compound": "CCN(C(=O)[C@@H]1C[C@H](N2CCOCC2)C(=O)N1c1cc(C(F)(F)F)cc(C)n1)c1ccc(F)c(Cl)c1", "Assigned category": "false (0)"}
{"Compound": "CCc1cc(C(F)(F)F)cc(N2C(=O)OC[C@H]2C(=O)N(C)c2ccc(F)c(Cl)c2)n1", "Assigned category": "true (1)"}

###

target: Polθ protein (amino acids 2-2590) (Homo sapiens); assay: Polθ full length enzyme potency assay (PicoGreen); details: Polθ IC50 (nM), full length N-His, C-term FLAG tagged Polθ, PicoGreen fluorescence, 12 point concentration response
Flag rule - IC50 less than 40 nM flags rule met; the remaining entries get rule not met.

{"Compound": "Cc1cc(C(F)(F)F)cc(N2C(=O)N(CCN3CC[C@H](F)C3)C[C@H]2C(=O)N(C)c2ccc(F)c(Cl)c2F)n1", "Assigned category": "rule met"}
{"Compound": "Cc1cc(C(F)(F)F)cc(N2C(=O)[C@@H](O)[C@@H](O)[C@H]2C(=O)N(C)c2ccc3c(n2)N(C)CCO3)n1", "Assigned category": "rule not met"}
{"Compound": "CNC(=O)CCN1C[C@@H](C(=O)N(C)c2ccc(F)c(Cl)c2)N(c2cc(C(F)(F)F)cc(C)n2)C1=O", "Assigned category": "rule met"}
{"Compound": "Cc1cc(C(F)(F)F)cc(N2C(=O)OC[C@H]2C(=O)N(C)c2cccc(N)n2)n1", "Assigned category": "rule not met"}
{"Compound": "C=Cc1cc(C(F)(F)F)cc(N2C(=O)OC[C@H]2C(=O)N(C)c2ccc(F)c(Cl)c2)n1", "Assigned category": "rule not met"}
{"Compound": "Cc1cc(C(F)(F)F)cc(N2C(=O)OC[C@H]2C(=O)N(C)c2ccc(C)c(Cl)c2)n1", "Assigned category": "rule met"}
{"Compound": "Cc1cc(C(F)(F)F)cc(N2C(=O)OC[C@H]2C(=O)N(C)c2ccc(Cl)cc2Cl)n1", "Assigned category": "rule not met"}
{"Compound": "Cc1cc(C(F)(F)F)cc(N2C(=O)[C@@H](O)[C@@H](O)[C@H]2C(=O)N(C)c2ccc3cnn(C)c3c2)n1", "Assigned category": "rule not met"}
{"Compound": "Cc1cc(C(F)(F)F)cc(N2C(=O)NC[C@H]2C(=O)N(C)c2ccc3c(C)n[nH]c3c2)n1", "Assigned category": "rule met"}
{"Compound": "CCN(C(=O)[C@@H]1C[C@H](N2CCO[C@H](CO)C2)CN1c1nc(C)cc(C(F)(F)F)c1C#N)c1ccc(F)c(Cl)c1", "Assigned category": "rule met"}
{"Compound": "Cc1cc(C(F)(F)F)cc(N2C(=O)N(CC(O)CN(C)C)C[C@H]2C(=O)N(C)c2ccc(F)c(Cl)c2F)n1 (stereo partly drawn)", "Assigned category": "rule met"}
{"Compound": "Cc1cc(C(C)C)cc(N2C(=O)OC[C@H]2C(=O)N(C)c2ccc(F)c(Cl)c2)n1", "Assigned category": "rule met"}
{"Compound": "Cc1cc(C(F)(F)F)cc(N2C(=O)OC[C@H]2C(=O)N(C)c2ccc(F)c(C)c2F)n1", "Assigned category": "rule met"}
{"Compound": "C=Cc1ccc(N(C)C(=O)[C@@H]2COC(=O)N2c2cc(C(F)(F)F)cc(C)n2)c(F)c1", "Assigned category": "rule met"}
